experiment: Cytotoxicity test against mammalian L6 cell line; format: cell-based; conditions: L6 cells (rat skeletal myoblasts)
Excerpt: […]
endpointLabel: IC50

molecule | experimentalValue
CO[C@@H]1C[C@H]2N3CC[C@@]2(c2cc4c(cc2C3)OCO4)[C@H]2O[C@@H]12 | > 100 µg/mL
CO[C@H]1C=C[C@@]23CC[N@@+]([O-])(Cc4cc5c(cc42)OCO5)[C@@H]3C1 [Buphanisine N-oxide (2), Buphanisine N-oxide] | > 100 µg/mL
COc1cc([C@@H]2c3cc4c(cc3[C@H](O)[C@H]3COC(=O)[C@H]23)OCO4)cc(OC)c1OC [podophyllotoxin, reference compound] | 0.004 µg/mL

* * *

test system: Leishmania donovani (amastigotes forms, MHOM-ET-67/L82 strain); assay: In vitro antiprotozoal activity against L. donovani; type: cell-based; details: amastigotes forms, MHOM-ET-67/L82 strain, read-out: L. donovani IC50

compound | IC50
O[C@H]1C=C[C@@]23CCN(Cc4cc5c(cc42)OCO5)[C@@H]3C1 [Crinine (10), Crinine] | > 100 µg/mL
CO[C@H]1C=C[C@@]23CCN(Cc4cc5c(cc42)OCO5)[C@@H]3C1 [Buphanisine (8), Buphanisine] | > 100 µg/mL
CN1CCC23c4cc5c(cc4C4OC(CCC12)C3O4)OCO5 (stereo not drawn) [Augustamine (22), Augustamine] | > 100 µg/mL
CO[C@@H]1C[C@@H]2[C@@]3(CC[N@@+]2([O-])Cc2cc4c(cc23)OCO4)[C@H]2O[C@@H]12 [Augustine N-oxide (1), Augustine N-oxide] | > 100 µg/mL
CO[C@H]1C=C[C@@]23CC[N@@+]([O-])(Cc4cc5c(cc42)OCO5)[C@@H]3C1 [Buphanisine N-oxide (2), Buphanisine N-oxide] | > 100 µg/mL
CO[C@@H]1C[C@H]2N3CC[C@@]2(c2cc4c(cc2C3)OCO4)[C@H]2O[C@@H]12 [Augustine (13), Augustine] | > 100 µg/mL

* * *

experiment: Cytotoxicity test against mammalian L6 cell line; format: cell-based; details: L6 cells (rat skeletal myoblasts)
endpointLabel: IC50 (µg/mL)

compound | endpointLabel | measurementUnit | comparator | experimentalValue
O[C@H]1C=C[C@@]23CCN(Cc4cc5c(cc42)OCO5)[C@@H]3C1 | IC50 | µg/mL | > | 100
CO[C@@H]1C[C@@H]2[C@@]3(CC[N@@+]2([O-])Cc2cc4c(cc23)OCO4)[C@H]2O[C@@H]12 [Augustine N-oxide (1), Augustine N-oxide] | IC50 | µg/mL | > | 100
CO[C@H]1C=C[C@@]23CCN(Cc4cc5c(cc42)OCO5)[C@@H]3C1 | IC50 | µg/mL | = | 72.8
CN1CCC23c4cc5c(cc4C4OC(CCC12)C3O4)OCO5 (stereo not shown) | IC50 | µg/mL | = | 81.5

* * *

tested on: Plasmodium falciparum (intraerythrocytic forms, IEF, NF54 strain); experiment: In vitro antiprotozoal activity against P. falciparum NF54; type: cell-based; details: intraerythrocytic forms, NF54 strain, read-out: P. falciparum IC50
Rule for this label: True means IC50 is less than 20 µg/mL; False means IC50 is at least 20 µg/mL.

compound | assignedLabel
CO[C@@H]1C[C@H]2N3CC[C@@]2(c2cc4c(cc2C3)OCO4)[C@H]2O[C@@H]12 [Augustine (13), Augustine] | True
O[C@H]1C=C[C@@]23CCN(Cc4cc5c(cc42)OCO5)[C@@H]3C1 [Crinine (10), Crinine] | False
CO[C@H]1C=C[C@@]23CCN(Cc4cc5c(cc42)OCO5)[C@@H]3C1 [Buphanisine (8), Buphanisine] | True
CO[C@@H]1C[C@@H]2[C@@]3(CC[N@@+]2([O-])Cc2cc4c(cc23)OCO4)[C@H]2O[C@@H]12 [Augustine N-oxide (1), Augustine N-oxide] | False
CO[C@H]1C=C[C@@]23CC[N@@+]([O-])(Cc4cc5c(cc42)OCO5)[C@@H]3C1 [Buphanisine N-oxide (2), Buphanisine N-oxide] | False

Hey, just so you know, these numbers are from paper PMC6099558.
